growth overview
# Tested on: K-562 leukemia
# Measurement Protocol: NCI-60 one-dose screen, 48 h (100 = growth as untreated, 0 = no growth, -100 = all killed)
# Measurement Parameters: 10 µM unless noted
The panel holds about 83,000 compounds, 20% with a hit somewhere; the sample as a whole holds those more often. Activity calls are given as the source filed them. How the source made its calls: active means growth percent below 10; inactive means the rest.
Reported Property: growth

| Compound | Assay Result |
| --- | --- |
| COc1ccc(-c2nc(-c3ccccc3)c(-c3ccccc3)[nH]2)cc1OC1CCCCC1 | 81.4% (inactive) |
| COC(=O)c1c2c(c(C)[n+]([O-])c1C)C(=O)C(NCc1ccc(Br)cc1)=CC2=O | 32% (inactive) |
| COCCN(C(=O)Cc1cccs1)C(C(=O)NCc1ccc(OC)cc1)c1ccc(C(C)C)cc1 (stereo not given) | 77% (inactive) |
| S=C1NC2(c3ccccc3)CCC(=S)N2c2ccccc21 (stereo not given) | 93.6% (inactive) |
| COc1ccc(/C=c2\sc3n(c2=O)NC2C(N=3)N(C)C(=O)N2C)cc1 (stereo not given) | 89.3% (inactive) |
| Cn1c(/C=C(\C#N)c2cccc(C(F)(F)F)c2)nc2c(N3CCOCC3)nc(Cl)nc21 | -12.2% (active) |
| O=C(O)CCCN1C(=O)C2C3CCC(C3)C2C1=O (stereo not given) | 105% (inactive) |
| COc1ccc(-c2nc(N3CCN(C(=O)C4CCCCC4)CC3)c3c4c(sc3n2)CCCC4)cc1 | 0.112% (active) |
| CCCCCCCCCCOC(=O)c1ccccc1C(=O)OCCCC | 99.9% (inactive) |
| Brc1ccc(Nc2nc3ccccc3nc2Nc2ccc(Br)cc2)cc1 | -20% (active) |
